ASSAYED_TARGET: Bcl-2 protein (Recombinant Human Bcl-2 Protein) (Homo sapiens)
Construct: purchased Novus NBP2-34889
Sequence (P10415 whole entry): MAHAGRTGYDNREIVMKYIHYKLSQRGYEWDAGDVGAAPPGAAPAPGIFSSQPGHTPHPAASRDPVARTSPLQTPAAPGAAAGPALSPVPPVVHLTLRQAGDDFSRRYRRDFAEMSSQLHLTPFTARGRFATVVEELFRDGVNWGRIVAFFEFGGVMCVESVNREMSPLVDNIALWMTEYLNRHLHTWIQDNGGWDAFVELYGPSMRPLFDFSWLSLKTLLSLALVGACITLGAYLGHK
ASSAY: Binding evaluation of mixture library compounds to Bcl-2 using AS-MS (affinity selection mass spectrometry)
ASSAY_CONDITIONS: AS-MS, mixture library, Bcl-2; replicate n = 2; ASMS Ratio(%)=(A−C)/B×100
MEASUREMENT_LABEL: ASMS ratio (%) n = 2

>>> quantitative_readout("CCOc1cncc(C#Cc2cncc(C(=O)N3CCN(c4ccc(C(=O)NS(=O)(=O)CC56CC7CC(CC(C7)C5)C6)cc4)CC3)c2)c1")
0.0
>>> quantitative_readout("CCOc1cncc(-c2cc(CN3CCN(c4ccc(C(=O)NS(=O)(=O)CC56CC7CC(CC(C7)C5)C6)cc4)CC3)cc(OCC)c2)c1")
0.2
>>> quantitative_readout("CCOc1cncc(-c2ccc(C(=O)N3CCN(c4ccc(C(=O)NS(C)(=O)=O)cc4)CC3)cc2C)c1")
"−0.2"
>>> quantitative_readout("CCOc1cncc(-c2cc(OC)c(CN3CCN(c4ccc(C(=O)NS(=O)(=O)CC56CC7CC(CC(C7)C5)C6)nn4)CC3)c(OC)c2)c1")
0.0
>>> quantitative_readout("CCOc1cncc(-c2ccc(CN3CCN(c4ccc(C(=O)NS(=O)(=O)c5ccc(NCCSc6ccccc6)c([N+](=O)[O-])c5)nn4)CC3)cc2C)c1")
15.4
>>> quantitative_readout("CCOc1cncc(-c2ccccc2CCC(=O)N2CCN(c3ccc(C(=O)NS(=O)(=O)c4ccc(NCCSc5ccccc5)c([N+](=O)[O-])c4)nn3)CC2)c1")
22.5

FYI, the data here is from patent US20240132431A1.
